# Tested system: Rat M4 (Rattus norvegicus, UniProt P08485)
# Construct: expressed in transfected cells; host or cells: CHO-K1 (ATCC), stably expressing M4 and Gqi5
# Procedure text: mAChR M4 cell-based functional calcium flux assay (rat M4/Gqi5/CHO cells)
# Test parameters: % ACh maximum at 30 μM
Hi there, I'd appreciate the recorded Emin (rat M4) for every entry that follows.
Quick note: give the figure in %, leave out the unit.

Problem: Name the reported Emin (rat M4) value associated with the compound Cn1nccc1-c1ccc(NCC2CC23CCN(CCC(C)(C)C)CC3)nn1 (centres unmarked) [Compound 38]
Result: 4.05

Problem: Next compound up: Cc1nn(C)cc1-c1ccc(NCC2CC23CCN(CC2CC4C=CC2C4)CC3)nn1 (centres unmarked) [Compound 9]
Result: 3.98

Problem: Next compound up: Cc1nn(C)cc1-c1nnc(NCC2CC23CCN(Cc2ccccc2)CC3)c2ccccc12 (centres unmarked) [Compound 88]
Result: 6

Problem: Subsequent entry: CC(=O)Nc1ccc(-c2ccc(NC[C@@H]3CC34CCN(CC3CCOCC3)CC4)nn2)cc1 [Compound 121]
Result: 9

Problem: Also need Cc1nn(C)cc1-c1ccc(NCC2CC23CCN(CC2CCCCC2)CC3)nn1 (centres unmarked) [Compound 56] , thanks.
Result: 4.14

Problem: Repeat with CC(C)(C)CCN1CCC2(CC1)CC2CNc1ccc(-c2ccc(F)cc2Cl)nn1 (centres unmarked) [Compound 24]
Result: 3.19

Problem: What do you have for Cc1cnn(C)c1-c1ccc(NC(=O)C2CC23CCN(CC2CC4C=CC2C4)CC3)nn1 (centres unmarked) [Compound 8] ?
Result: 10.8

Problem: Now give it for Fc1ccc(Cl)c(-c2ccc(NC[C@@H]3CC34CCN(CC3CCCCC3)CC4)nn2)c1 [Compound 65] too.
Result: 4.33

====

Provide the recorded Emin (rat M4) for the entries that follow.
# Tested system: Rat M4 (Rattus norvegicus)
# Construct: expressed in transfected cells; host or cells: CHO-K1 (ATCC), stably expressing M4 and Gqi5
# Procedure text: mAChR M4 cell-based functional calcium flux assay (rat M4/Gqi5/CHO cells)
# Test parameters: % ACh maximum at 30 μM

Problem: Hi! What's the reported Emin (rat M4) for CC(C)(C)CCN1CCC2(CC1)CC2CNc1ccc(N2CCC(F)(F)C2)nn1 (stereo not shown) on Rat M4 (Rattus norvegicus)?
Result: 5%

Problem: What about C1=CC2CC1CC2CN1CCC2(CC1)CC2CNc1ncc(-c2ccccc2)s1 (stereo not shown) ?
Result: 4.72%

Problem: Note, next up: Fc1ccc(Cl)c(-c2ccc(NC[C@@H]3CC34CCN(CC3CCOCC3)CC4)nn2)c1
Result: 6%

Problem: Same lookup for CC(C)(C)CCN1CCC2(CC1)CC2CNc1ccc(-c2ccc3c(c2)OCO3)nn1 (stereo not shown) , please.
Result: 3.11%

====

# Tested system: Rat M4 (Rattus norvegicus, UniProt P08485)
# Construct: expressed in transfected cells; host or cells: CHO-K1 (ATCC), stably expressing M4 and Gqi5
# Sequence (P08485 1-478): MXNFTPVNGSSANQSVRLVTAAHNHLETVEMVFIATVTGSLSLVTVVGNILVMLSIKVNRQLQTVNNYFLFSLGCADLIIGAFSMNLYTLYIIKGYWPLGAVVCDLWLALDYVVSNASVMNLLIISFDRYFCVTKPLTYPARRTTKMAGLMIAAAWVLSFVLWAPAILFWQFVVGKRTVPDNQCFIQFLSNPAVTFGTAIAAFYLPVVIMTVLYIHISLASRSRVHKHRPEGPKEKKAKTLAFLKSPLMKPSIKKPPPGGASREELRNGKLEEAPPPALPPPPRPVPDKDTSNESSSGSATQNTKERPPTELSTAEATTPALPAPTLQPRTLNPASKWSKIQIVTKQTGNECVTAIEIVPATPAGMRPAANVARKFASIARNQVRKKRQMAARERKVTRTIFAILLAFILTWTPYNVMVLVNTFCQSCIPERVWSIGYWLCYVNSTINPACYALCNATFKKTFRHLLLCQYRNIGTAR
# Procedure text: mAChR M4 cell-based functional calcium flux assay (rat M4/Gqi5/CHO cells)
# Test parameters: cells printed in μM; decrease of the EC80 acetylcholine response
Result type: IC50

Problem: What is its IC50 for Rat M4 (Rattus norvegicus, UniProt P08485)? Entry: Cc1nn(C)cc1-c1ccc(NCC2CC23CCN(CC2CC2)CC3)nn1 (centres unmarked)
Result: > 10 µM

Problem: Now try Cc1nn(C)cc1-c1ccc(NCC2CC23CCN(Cc2ncccc2C(F)(F)F)CC3)nn1 (centres unmarked) .
Result: > 10 µM

Problem: And Cc1cnn(C)c1-c1ccc(NCC2CC23CCN(CC2CCOCC2)CC3)nn1 (centres unmarked) ?
Result: > 10 µM

Problem: Could you do the same for CCN1CCC2(CC1)CC2CNc1ccc(-c2cn(C)nc2C)nn1 (centres unmarked) , please?
Result: > 10 µM

Problem: Subsequent entry: Cc1cnn(C)c1-c1ccc(NCC2CC23CCN(CCC2CCCO2)CC3)nn1 (centres unmarked)
Result: > 10 µM

====

# Tested system: Human M4 (Homo sapiens, UniProt P08173)
# Construct: expressed in transfected cells; host or cells: CHO-K1 (ATCC), stably expressing M4 and Gqi5
# Sequence (P08173 1-479): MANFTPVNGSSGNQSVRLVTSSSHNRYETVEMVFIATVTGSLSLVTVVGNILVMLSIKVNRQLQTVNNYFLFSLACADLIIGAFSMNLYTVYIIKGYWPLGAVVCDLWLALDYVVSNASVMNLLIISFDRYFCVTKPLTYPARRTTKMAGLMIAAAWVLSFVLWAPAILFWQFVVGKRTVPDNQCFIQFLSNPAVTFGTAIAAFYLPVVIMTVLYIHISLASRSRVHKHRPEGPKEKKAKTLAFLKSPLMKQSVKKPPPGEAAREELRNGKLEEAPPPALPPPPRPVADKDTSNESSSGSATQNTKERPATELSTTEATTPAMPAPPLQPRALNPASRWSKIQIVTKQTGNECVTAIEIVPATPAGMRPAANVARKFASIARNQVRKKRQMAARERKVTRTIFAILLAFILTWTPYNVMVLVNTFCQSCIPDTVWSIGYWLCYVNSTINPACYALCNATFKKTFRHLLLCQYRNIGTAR
# Procedure text: mAChR M4 cell-based functional calcium flux assay (human M4/Gqi5/CHO cells)
# Test parameters: % ACh maximum at 30 μM
Result type: Emin (human M4) (%)
Respond with the bare value in %.

Problem: So what does the record say about Emin (human M4) for Cc1cnn(C)c1-c1ccc(NCC2CC23CCN(CCC(C)(C)C)CC3)nn1 (stereo not shown) [Compound 35] ?
Result: 2.58

Problem: Now consider Cc1nn(C)cc1-c1ccc(NCC2CC23CCN(Cc2ncccc2C(F)(F)F)CC3)nn1 (stereo not shown) [Compound 63] and answer again.
Result: 4.53

Problem: Consider next the molecule CC(=O)Nc1ccc(-c2ccc(NC[C@@H]3CC34CCN(CC3CCCCCC3)CC4)nn2)cc1 [Compound 119] in the same way.
Result: 3

Problem: Subsequent entry: c1ccc(-c2cnc(NCC3CC34CCN(CC3CCOCC3)CC4)s2)cc1 (stereo not shown) [Compound 73]
Result: 8.96

====

# Tested system: Rat M4 (Rattus norvegicus)
# Construct: expressed in transfected cells; host or cells: CHO-K1 (ATCC), stably expressing M4 and Gqi5
# Procedure text: mAChR M4 cell-based functional calcium flux assay (rat M4/Gqi5/CHO cells)
# Test parameters: decrease of the response to an EC80 concentration of acetylcholine
Kindly supply the reported pIC50 values for the records listed here.
# pIC50 is unitless: minus log10 of the molar concentration; print number only

Problem: Query (compound): Cc1nn(C)cc1-c1ccc(NCC2CC23CCN(CC2CCCOC2)CC3)nn1 (centres unmarked) [Compound 60] ; field requested: pIC50
Result: 5.72

Problem: Try this compound too: Fc1ccc(Cl)c(-c2ccc(NC[C@@H]3CC34CCN(CC3CC5C=CC3C5)CC4)nn2)c1 (some centres unmarked) [Compound 108]
Result: 7.32

Problem: What about Cc1nn(C)cc1-c1ccc(NCC2CC23CCN(CC(c2ccccc2)c2ccccc2)CC3)nn1 (centres unmarked) [Compound 59] ?
Result: 5.73

Problem: Follow-up item: CC(C)(C)CCN1CCC2(CC1)C[C@H]2CNc1ccc(-c2cc(F)ccc2Cl)nn1 [Compound 64]
Result: 7.48

Problem: Try Cn1nccc1-c1ccc(NCC2CC23CCN(CCC(C)(C)C)CC3)nn1 (centres unmarked) [Compound 38] next.
Result: 7.62

Problem: Please give the result for Fc1ccc(Cl)c(-c2ccc(NCC3CC34CCN(Cc3ncccc3C(F)(F)F)CC4)nn2)c1 (centres unmarked) [Compound 1] too.
Result: 5.94

Problem: Same question, Cc1nn(C)cc1-c1ccc(NCC2CC23CCN(CCC(C)(C)C)CC3)nc1 (centres unmarked) [Compound 6] this time
Result: 6.50

Problem: Repeat with CC(=O)Nc1ccc(-c2ccc(NC[C@@H]3CC34CCN(CC3CCCCC3)CC4)nn2)cc1 [Compound 118]
Result: 7.78
